tested on: A498 renal; test: NCI tumour cell line growth inhibition, 384-well format
Decision: TGI compared against 4 µM; not below it gives Y, below it gives N.

• COc1cc(C(=O)O)ccc1NC(=O)[C@@H]1N[C@@H](CC(C)(C)C)[C@](C#N)(c2ccc(Cl)cc2F)[C@H]1c1cccc(Cl)c1F = Y
• Cc1cc(Nc2ncc(Cl)c(Nc3ccccc3S(=O)(=O)C(C)C)n2)c(OC(C)C)cc1C1CCNCC1 = N
• Cc1c(N(C(=O)c2cc(-c3cc(Cl)ccc3C(=O)N3Cc4ccccc4C[C@H]3CN3CCOCC3)n(C)c2C)c2ccc(O)cc2)cc(C#N)n1C = Y
• CNC(=O)c1ccc(Nc2nc(OC3CCCC3)c3c(-c4ccc5nc(C)oc5c4)c[nH]c3n2)c(OC)c1 = Y
• CCC[C@H](Nc1nc(-c2ccc(NC(=O)NCC)c(OC)c2)ncc1C)c1cccnc1 = N
